target-entity: T1, Monomeric human CD48-mmH (human)
T1 construct: also called soluble CD48 expressed with a myc-myc-hexa-histidine C-terminal tag [mmH]
T1 chain: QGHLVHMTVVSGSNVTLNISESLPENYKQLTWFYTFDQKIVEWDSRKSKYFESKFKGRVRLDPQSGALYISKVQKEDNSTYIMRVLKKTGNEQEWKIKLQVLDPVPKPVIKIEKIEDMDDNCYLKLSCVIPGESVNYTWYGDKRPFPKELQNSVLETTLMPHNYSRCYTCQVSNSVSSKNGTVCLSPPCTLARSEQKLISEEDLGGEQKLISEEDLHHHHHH
measurement-protocol: SPR (Biacore T100), 25 C, antibody captured by anti-Fc, monomeric CD48-mmH in solution
Experimental: Measurements were conducted on a T100-2 BIACORE™ instrument (Biacore Life Sciences division of GE Healthcare, Piscataway, N.J.). […] The soluble CD48 was applied to the flow cell in separate injections at different concentrations, and kinetic association (kₐ) and dissociation (kd) rate constants were determined by fits to the kinetic binding data using Biacore software. […]
reported-endpoint: T½ (h)
All answers are understood in h, so give the number only.

| binder | T½, h |
| --- | --- |
| H4H1772P (antibody, human IgG4, V domains shown, Human IgG4 Fc (prefix H4H)) VH: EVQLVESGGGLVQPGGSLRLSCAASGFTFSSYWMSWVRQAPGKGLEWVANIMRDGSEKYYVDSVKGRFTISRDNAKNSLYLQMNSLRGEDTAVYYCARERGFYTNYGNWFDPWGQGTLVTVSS VL: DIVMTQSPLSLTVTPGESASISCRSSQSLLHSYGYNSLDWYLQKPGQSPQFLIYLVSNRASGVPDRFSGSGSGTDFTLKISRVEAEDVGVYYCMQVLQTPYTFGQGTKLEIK | 1.1 |

Query :: Using the record for H3M1766N (antibody, V domains shown, also called H2M1766N) VH: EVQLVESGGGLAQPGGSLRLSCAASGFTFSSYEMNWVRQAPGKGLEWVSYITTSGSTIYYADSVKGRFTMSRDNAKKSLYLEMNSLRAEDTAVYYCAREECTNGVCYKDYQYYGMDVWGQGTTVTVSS VL: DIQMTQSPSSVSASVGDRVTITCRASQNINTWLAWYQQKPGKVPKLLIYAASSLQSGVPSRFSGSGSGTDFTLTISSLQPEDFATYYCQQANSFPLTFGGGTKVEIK , report its T½.
Result :: 1.08

Query :: And the next one, H4H1781P (antibody, human IgG4, V domains shown, Human IgG4 Fc (prefix H4H)) VH: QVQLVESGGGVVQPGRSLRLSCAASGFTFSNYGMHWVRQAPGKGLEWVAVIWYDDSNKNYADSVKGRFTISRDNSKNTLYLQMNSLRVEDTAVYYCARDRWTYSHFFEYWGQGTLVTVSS VL: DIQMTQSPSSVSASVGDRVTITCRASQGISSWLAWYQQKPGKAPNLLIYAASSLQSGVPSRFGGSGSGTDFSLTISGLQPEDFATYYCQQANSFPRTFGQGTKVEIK ?
Result :: 5.85

Query :: And the next one, H4H1763N (antibody, human IgG4, V domains shown, Human IgG4 Fc (prefix H4H)) VH: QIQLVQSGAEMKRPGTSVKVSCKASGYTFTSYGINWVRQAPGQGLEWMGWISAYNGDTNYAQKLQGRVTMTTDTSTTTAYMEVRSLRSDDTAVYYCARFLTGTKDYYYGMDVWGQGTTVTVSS VL: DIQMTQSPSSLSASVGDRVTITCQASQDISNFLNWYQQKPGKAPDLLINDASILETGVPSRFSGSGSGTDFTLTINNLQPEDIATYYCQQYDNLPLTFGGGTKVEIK ?
Result :: 0.0333

Query :: And the next one, H4H1774P (antibody, human IgG4, V domains shown, Human IgG4 Fc (prefix H4H)) VH: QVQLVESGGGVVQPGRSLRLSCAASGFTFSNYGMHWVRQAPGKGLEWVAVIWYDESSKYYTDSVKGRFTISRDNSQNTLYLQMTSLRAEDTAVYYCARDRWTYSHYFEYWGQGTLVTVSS VL: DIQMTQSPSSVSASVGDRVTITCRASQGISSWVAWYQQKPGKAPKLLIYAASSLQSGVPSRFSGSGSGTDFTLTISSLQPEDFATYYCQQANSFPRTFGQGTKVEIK ?
Result :: 4.08

Query :: And the next one, H4H1771P (antibody, human IgG4, V domains shown, Human IgG4 Fc (prefix H4H)) VH: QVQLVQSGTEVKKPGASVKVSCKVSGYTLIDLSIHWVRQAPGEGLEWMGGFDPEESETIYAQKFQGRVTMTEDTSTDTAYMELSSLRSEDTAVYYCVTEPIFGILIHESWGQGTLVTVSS VL: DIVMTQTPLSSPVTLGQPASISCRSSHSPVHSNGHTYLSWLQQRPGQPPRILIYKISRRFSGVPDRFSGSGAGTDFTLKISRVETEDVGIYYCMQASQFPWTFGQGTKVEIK ?
Result :: 0.917
